# fluorescence lifetime annotations
- ASSAY NAME: solvent given as SMILES
- ASSAY SETUP: in CO
Report as a plain number; the unit ns is understood.

COMPOUND	ATTRIBUTE MEASURED	VALUE MEASURED
CCCCCCOc1ccc2oc3c(c2c1)=CC1=C(c2ccccc2C)c2cc4c5cc(OCCCCCC)ccc5oc4n2[B-](F)(F)[N+]=31	fluorescence lifetime	1.67
CCOC(=O)C1=CN(Cc2ccccc2)C=C(C(=O)OCC)C1	fluorescence lifetime	28.2

Which fluorescence lifetime is listed for COC(=O)C(Cc1ccc2oc(-c3ccc(N(C)c4ccccc4)cc3)nc2c1)NC(=O)OC(C)(C)C (configuration not stated) ? 0.76

Cool, now C[Si](C)(C)c1ccc2ccc3c([Si](C)(C)C)ccc4ccc1c2c43 71.8

Cool, now Cc1cc(-c2ccccc2)nc2c1ccc1nc(-c3ccccc3)cn12 5.18

Cool, now COc1ccc2c(=O)c3c([nH]c2c1)-c1ccccc1NC3(C)C 9.35

Cool, now COC(=O)C(Cc1ccc2oc(-c3ccc(Nc4ccccc4)cc3)nc2c1)NC(=O)OC(C)(C)C (configuration not stated) 0.43

Cool, now Cc1ccc(C2=C3C=CC(c4ccccc4)=[N+]3[B-](F)(F)n3c2ccc3-c2ccccc2)cc1 1.22

Cool, now COc1ccc(C2=C3C=CC(C)=[N+]3[B-](F)(F)n3c(C)ccc32)cc1 1.87

Cool, now COc1ccccc1-c1c(-c2ccccc2O)nc(-c2ccc(C(F)(F)F)cc2)n1-c1ccc(C)cc1 1.5

Cool, now CCOC(=O)C(C(=O)OCC)C1=[N+]2C(=C(c3ccc(C)cc3)c3ccc(C(C(=O)OCC)C(=O)OCC)n3[B-]2(F)F)C=C1 2.18

Cool, now COc1cc2[nH]c3c(c2cc1OCC(=O)O)CCCC3=O 1.87

Cool, now O=C(O)CCCc1cc2ccc3cccc4ccc(c1)c2c34 622

* * *

- ASSAY NAME: solvent given as SMILES
- ASSAY SETUP: in CC(C)O
# fluorescence lifetime annotations
Report as a plain number; the unit ns is understood.

Below, 10 compounds whose answers are already recorded.
COMPOUND	fluorescence lifetime, ns
COc1ccc2c3c(cccc13)C(=O)c1ccccc1-2	12.7
CCN(CC)c1cccc(C=O)c1	1.47
CN(C)c1ccc(/C=C/C=C2\CC/C(=C\c3ccc(N(C)C)cc3)C2=O)cc1	1.24
Cc1ccc2sc3cc(CCC(=O)O)ccc3c(=O)c2c1	1.3
N#Cc1ccc(C[C@H](N)C(=O)O)cc1	4
Cc1ccc(-c2cc(-c3ccc(N(C)C)cc3)c3c(N)nc(N4CCCC4)c(C#N)c3n2)cc1	11.2
COC(=O)C(Cc1ccc2oc(-c3ccc(Nc4ccccc4)cc3)nc2c1)NC(=O)OC(C)(C)C (stereo unspecified)	2.43
N#Cc1ccc2[nH]ccc2c1	4.6
COc1ccc(-c2cc(-c3ccc(OC)cc3)c3c(N)nc(N4CCCC4)c(C#N)c3n2)cc1	11.6
O=C([O-])c1ccccc1-c1c2cc(I)c(=O)c(I)c-2oc2c(I)c([O-])c(I)cc12	0.66

Please look at the following compound next.
Which fluorescence lifetime is listed for CCC1=C(C)C2=C(C)c3c(C)c(CC)c(C)n3[B-](F)(F)[N+]2=C1C ? 6.04

* * *

# fluorescence lifetime annotations
- ASSAY NAME: solvent given as SMILES
- ASSAY SETUP: in CC#N
Report as a plain number; the unit ns is understood.

Below, 5 compounds whose answers are already recorded.
COMPOUND	fluorescence lifetime / ns
C=CCOc1ccc(-c2nc3cc(C(NC(=O)OC(C)(C)C)C(=O)OC)ccc3o2)cc1 (configuration not stated)	1.14
Cn1cccc1-c1ccc(C#N)cc1	5.4
COc1ccc(-c2csc(/C(C#N)=C/c3ccccc3Cl)n2)cc1	3.93
C(=C\c1nc(-c2ccccc2)c2ccccn12)/c1nc(-c2ccccc2)c2ccccn12	1
CCCCCCCC[n+]1ccc(-c2cc[n+](CCCCCCCC)cc2)cc1	1

Which fluorescence lifetime is listed for COC(=O)C(Cc1ccc2oc(-c3ccc(N(C)C)cc3)nc2c1)NC(=O)OC(C)(C)C (configuration not stated) ? 1.32

Cool, now N#Cc1ccc(/C=C2\OC(=O)c3cc(N)ccc32)cc1 0.51

Cool, now COc1ccc2c(=O)c3c([nH]c2c1)-c1ccccc1NC3(C)C 9.16

Cool, now CCN(CC)c1ccc2c(C)cc(=O)oc2c1 3.4

Cool, now c1cc2c3c(cccc3c1)C(N1CCOCCOCCOCCOCC1)=N2 0.55

Cool, now N#CC(C#N)=C(/C=C/c1ccc(N(c2ccccc2)c2ccccc2)cc1)c1ccc2c3c(cccc13)CC2 1.22

Cool, now CN(C)c1ccc(-c2nc3c(c4c2-c2ccc(C#N)cc2CC4)-c2ccc(C#N)cc2CC3)cc1 3.56

* * *

- ASSAY NAME: solvent given as SMILES
- ASSAY SETUP: in CCCCCCCCCC
Could you label it condition met if measured fluorescence lifetime is 1 ns or higher, and condition not met otherwise?

The following compounds have reported results that may help.
COMPOUND	QUALITATIVE LABEL
CC/C=C/C=C/C=C/C=C/CCCCCCCC(=O)O	condition met
COC(=O)C(Cc1ccc2oc(-c3ccc(Nc4ccccc4)cc3)nc2c1)NC(=O)OC(C)(C)C (stereo not drawn)	condition met
CCC1(CC)c2cc(-c3ccc(C(C)(C)C)cc3)ccc2-c2ccc(-c3ccc4c(c3)C(CC)(CC)c3cc(-c5ccc6c(c5)C(CC)(CC)c5cc(-c7ccc(C(C)(C)C)cc7)ccc5-6)ccc3-4)cc21	condition not met
COC(=O)C(Cc1ccc2oc(-c3ccc(N(C)c4ccccc4)cc3)nc2c1)NC(=O)OC(C)(C)C (stereo not drawn)	condition met
CCC1(CC)c2cc(-c3ccc(-c4ccc5c(c4)C(CC)(CC)c4cc(C(C)(C)C)ccc4-5)cc3)ccc2-c2ccc(C(C)(C)C)cc21	condition not met

For this compound, is measured fluorescence lifetime 1 ns or higher? COC(=O)C(Cc1ccc2oc(-c3ccc(N(C)C)cc3)nc2c1)NC(=O)OC(C)(C)C (stereo not drawn) condition met

Cool, now COC(=O)C(Cc1ccc2oc(-c3ccc4c(c3)c3ccccc3n4-c3ccccc3)nc2c1)NC(=O)OC(C)(C)C (stereo not drawn) condition met

Cool, now CCC1(CC)c2cc(-c3ccc4c(c3)C(CC)(CC)c3cc(C(C)(C)C)ccc3-4)ccc2-c2ccc(-c3ccc4c(c3)C(CC)(CC)c3cc(C(C)(C)C)ccc3-4)cc21 condition not met

* * *

# fluorescence lifetime annotations
- ASSAY NAME: solvent given as SMILES
- ASSAY SETUP: in ClCCl
Report as a plain number; the unit ns is understood.

Below, 2 molecules whose answers are already recorded.
MOLECULE	fluorescence lifetime (ns)
COc1ccc(-c2c3ccccc3c(C#Cc3ccccc3)c3cc4cc(C)sc4cc23)cc1	7.1
O=P1(c2ccccc2)C2=C(c3ccccc31)S(=O)(=O)c1ccccc12 (configuration not stated)	12.9

Which fluorescence lifetime is listed for CN(C)c1ccc2nc(/C=C/c3ccccc3)c(=O)oc2c1 ? 3.83

Cool, now COc1ccc(-c2c3cc4ccccc4cc3c(-c3ccc(OC)cc3)c3cc4ccccc4cc23)cc1 7.8

Cool, now c1csc(-c2ccc(-c3cccs3)s2)c1 0.17

Cool, now CCOC(=O)CCCCCn1c2ccc([N+](=O)[O-])cc2c(=O)c2cc3c(cc21)c(=O)c1cc([N+](=O)[O-])ccc1n3CCCCCC(=O)OCC 5.1

Cool, now CCOc1cccc(-c2nc3c(c4c2-c2ccccc2CC4)-c2ccccc2CC3)c1O 0.65

Cool, now c1ccc(N2N=C(c3c4ccccc4cc4ccccc34)CC2c2ccc3ccc4cccc5ccc2c3c45)cc1 (configuration not stated) 1.17

Cool, now CN(C)c1ccc(/C=C/C=C2\CC/C(=C\C=C\c3ccc(N(C)C)cc3)C2=O)cc1 1.08

Cool, now COc1ccc(-c2cc(-c3ccc(OC)cc3)c3c(N)nc(N4CCCC4)c(C#N)c3n2)cc1 13.2

Cool, now CCCCCCCCN1c2ccccc2Sc2cc(/C=C/c3ccc(N(c4ccc(/C=C/c5ccc6c(c5)Sc5ccccc5N6CCCCCCCC)cc4)c4ccc(/C=C/c5ccc(/C=C/c6ccc(N(c7ccc(/C=C/c8ccc(N(c9ccccc9)c9ccccc9)cc8)cc7)c7ccc(/C=C/c8ccc(N(c9ccccc9)c9ccccc9)cc8)cc7)cc6)c6nsnc56)cc4)cc3)ccc21 1.75

Cool, now Nc1cccc2c1ccc1[n+]2[B-](F)(F)n2c-1cc1c3ccccc3c3ccccc3c12 2.19

Cool, now CCN(CC)c1ccc2cc(/C=C/C(=C(C#N)C#N)c3ccc(N(c4ccccc4)c4ccccc4)cc3)c(=O)oc2c1 2.88

Cool, now Cc1ccc(C2=[N+]3C(=Cc4c(C)cc(C)n4[B-]3(F)F)c3ccccc32)[nH]1 6.65

Cool, now COc1ccc(C2=Cc3cc4ccccc4cc3P2(=O)c2ccccc2)cc1 (configuration not stated) 3.8

Cool, now CCN(CC)c1ccc(-c2nc3c(c4c2-c2ccccc2CC4)-c2ccccc2CC3)cc1 1.22

Cool, now COC(=O)c1cc(=O)n(C)c2cc(-c3ccc4c(c3)OCO4)sc12 1.72

These data points were gathered from the Deep4Chem optical property database.
